- PROTOCOL: in vivo
- RUN_CONDITIONS: rabbit, Rapamycin level, Blood
PARAMETER_MEASURED: concentration at 8 day (ng/mL)
# unit: ng/mL | format: bare number

Record request: concentration at 8 day value, item CO[C@H]1C[C@@H]2CC[C@@H](C)[C@@](O)(O2)C(=O)C(=O)N2CCCC[C@H]2C(=O)O[C@H]([C@H](C)C[C@@H]2CC[C@@H](O)[C@H](OC)C2)CC(=O)[C@H](C)/C=C(\C)[C@@H](O)[C@@H](OC)C(=O)[C@H](C)C[C@H](C)/C=C/C=C/C=C/1C 15.5

* * *

- PROTOCOL: in vivo
- RUN_CONDITIONS: rabbit, Rapamycin level, Cornea
PARAMETER_MEASURED: concentration at 10 day (ng/g)
# unit: ng/g | format: bare number

Record request: concentration at 10 day value, item CO[C@H]1C[C@@H]2CC[C@@H](C)[C@@](O)(O2)C(=O)C(=O)N2CCCC[C@H]2C(=O)O[C@H]([C@H](C)C[C@@H]2CC[C@@H](O)[C@H](OC)C2)CC(=O)[C@H](C)/C=C(\C)[C@@H](O)[C@@H](OC)C(=O)[C@H](C)C[C@H](C)/C=C/C=C/C=C/1C 110
